B1: LINE1-mini (parent)
chain: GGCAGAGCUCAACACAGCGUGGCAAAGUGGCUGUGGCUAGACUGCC

- Variants of: B1
- Assay remarks: self-cleavage, relative activity (ratio to wild type); higher = more cleavage; in vitro, sequencing; the parent is a self-cleaving ribozyme
# label = Fulfilled if self-cleavage >= 0.08 else Not fulfilled

Consider the following illustrative entries.
G33C U34G	Not fulfilled
C3A C45U	Fulfilled
G29U U38C	Fulfilled
A6C C46G	Fulfilled
U9A G21A	Fulfilled
G21U G40A	Fulfilled

Does the reported self-cleavage for C10G G33C fall at or above the 0.08 mark?
Not fulfilled

U9C G36A , same question.
Fulfilled

C13A A25G , same question.
Fulfilled
